Target: T1, human glucose-dependent insulinotropic peptide (gastric inhibitory polypeptide) receptor (human) (UniProt P48546)
T1 sequence (looked up): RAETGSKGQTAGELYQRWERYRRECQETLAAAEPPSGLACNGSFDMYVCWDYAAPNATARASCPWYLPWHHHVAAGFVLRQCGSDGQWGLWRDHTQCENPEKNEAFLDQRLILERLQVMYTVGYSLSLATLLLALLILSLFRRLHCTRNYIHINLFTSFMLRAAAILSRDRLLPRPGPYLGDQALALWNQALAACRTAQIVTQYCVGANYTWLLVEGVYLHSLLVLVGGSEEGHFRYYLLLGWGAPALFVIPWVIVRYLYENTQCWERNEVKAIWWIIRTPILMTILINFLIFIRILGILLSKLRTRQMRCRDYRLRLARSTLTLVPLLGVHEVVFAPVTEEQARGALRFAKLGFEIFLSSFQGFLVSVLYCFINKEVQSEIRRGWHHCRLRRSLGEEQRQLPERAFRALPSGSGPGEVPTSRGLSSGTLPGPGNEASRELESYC
Test: cell-based or functional assay
Numbered stars: 1 amine (or outer) side, 2 acyl side, 3 side chain; on linkers, the order of the positions; unused ones are H or OH. Side chains are listed from the residue outwards. Ends that are not written are not given here. * marks the point of attachment. γGlu = O=C(O)[C@H](CCC(=O)[*:2])N[*:1]; Palmitoyl = CCCCCCCCCCCCCCCC(=O)*; Ahx = NCCCCCC(=O)O; βAla = NCCC(=O)O
Param threshold (60 nM) applies to cAMP EC50 (assay 1); output true (1) when value >= threshold, false (0) when value < threshold.

Please review the entries below; each comes with its answer.
HSQGTFTSDYSEYLDSK([Ahx-Palmitoyl])RAADFVAWLERGG-NH2 (not fully specified) [g818] : true (1)
HSQGTFTSDYSKYLDSRRAQDFVQWLVAGGPSSGAPPPSK(Palmitoyl)-NH2 [g320] : false (0)

Query block: API: above_or_equal(metric=cAMP EC50 (assay 1), cutoff=60 nM) for item HSQGTFTSDYSEYLDSK([Ahx-Palmitoyl])RARDFVAWLERGG-NH2 (not fully specified) [g794]
Result block: false (0)

Query block: API: above_or_equal(metric=cAMP EC50 (assay 1), cutoff=60 nM) for item HSQGTFTSDYSKYLDSRRAQDFVQWLVAGGGGGGK([γGlu-Palmitoyl])-NH2 [g327]
Result block: false (0)

Query block: API: above_or_equal(metric=cAMP EC50 (assay 1), cutoff=60 nM) for item HSQGTFTSDYSEYLDSK([βAla-Palmitoyl])RARDFVAWLERGG-NH2 (not fully specified) [g795]
Result block: true (1)

Query block: API: above_or_equal(metric=cAMP EC50 (assay 1), cutoff=60 nM) for item HSQGTFTSDYSEYLDSK([Ahx-Palmitoyl])RARDFVEWLERGG-NH2 (not fully specified) [g771]
Result block: false (0)

Query block: API: above_or_equal(metric=cAMP EC50 (assay 1), cutoff=60 nM) for item HSQGTFTSDYSKYLDSRRAQDFVQWLVAGGSSGGSS-NH2 [g316]
Result block: false (0)

Query block: API: above_or_equal(metric=cAMP EC50 (assay 1), cutoff=60 nM) for item HSQGTFTSDYSKYLDSRAAQK([Ahx-Palmitoyl])FVQWLERGG-NH2 (not fully specified) [g806]
Result block: true (1)

Query block: API: above_or_equal(metric=cAMP EC50 (assay 1), cutoff=60 nM) for item HSQGTFTSDYSEYLDSK([Ahx-Palmitoyl])RARDFVAWLERGG-OH (not fully specified) [g826]
Result block: false (0)
